- test.target: limbic D-2 dopamine receptor (Rattus norvegicus, UniProt P61169)
- Sequence (P61169 whole entry): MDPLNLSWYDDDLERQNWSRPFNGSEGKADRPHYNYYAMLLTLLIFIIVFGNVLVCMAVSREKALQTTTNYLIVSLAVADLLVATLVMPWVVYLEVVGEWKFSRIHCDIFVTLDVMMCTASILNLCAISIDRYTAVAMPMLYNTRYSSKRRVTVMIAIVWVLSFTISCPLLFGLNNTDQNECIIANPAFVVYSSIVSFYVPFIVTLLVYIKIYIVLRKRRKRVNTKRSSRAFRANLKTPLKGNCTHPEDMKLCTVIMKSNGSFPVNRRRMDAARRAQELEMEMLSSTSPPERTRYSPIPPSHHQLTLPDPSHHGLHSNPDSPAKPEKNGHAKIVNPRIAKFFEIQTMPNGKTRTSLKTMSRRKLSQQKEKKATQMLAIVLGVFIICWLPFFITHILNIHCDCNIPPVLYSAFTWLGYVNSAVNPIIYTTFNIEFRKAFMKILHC
- experiment.summary: biochemical
- Assay type: binding, rats
- setup.conditions: rat limbic tissue; 0.3 nM 3H-spiroperidol; 37° C., 10 min; read-out: Limbic D-2 Binding (Ki nM)
Counter-ions that a name gives are not always drawn.
observable: Ki (nM)

compound: O=C1c2ccccc2S(=O)(=O)N1CCCCN1CCN(c2nccnc2Cl)CC1 [Example 11, hydrochloride]
recorded.number: 493

compound: O=C1C2C3C=CC(C4CC34)C2S(=O)(=O)N1CCCCN1CCN(c2ncccn2)CC1 (stereo not drawn) [Example 6, dihydrochloride]
recorded.number: 1410

compound: O=C1C2C3C=CC(C3)C2S(=O)(=O)N1CCCCN1CCN(c2ncccn2)CC1 (stereo not drawn) [Example 1, dihydrochloride, hemihydrate]
recorded.number: 1100

compound: O=C1C2C3C=CC(CC3)C2S(=O)(=O)N1CCCCN1CCN(c2ncccn2)CC1 (stereo not drawn) [Example 2, dihydrochloride, hydrate]
recorded.number: 2000

(a) O=C1C2C3C=CC(C4CC34)C2S(=O)(=O)N1CCCCN1CCN(c2cncc(Cl)n2)CC1 (stereo not drawn) [Example 18, hydrochloride]
(b) CC1=C(C)CC2C(C1)C(=O)N(CCCCN1CCN(c3nccnc3Cl)CC1)S2(=O)=O (stereo not drawn) [Example 13, hydrochloride, hydrate]
Hi there! Just curious which has the higher Ki between a and b . Answer by quoting the chosen item's label.
a
